C0: recorded values
Experiment: In vivo pharmacokinetic and oral bioavailability in mouse
Design: species or system male Swiss mice
Settings: male, Swiss, plasma, iv, 2.5 mg/kg, 20% HP-β-cyclodextrin
Protocol: The in vivo pharmacokinetics and oral bioavailability of the compound of the examples were/are investigated in male Swiss mice (fed) following single intravenous (i.v.) bolus and oral (p.o.) administration. For the i.v. and p.o. solution formulations, the compound was/is dissolved in a 20% HP-β-CD solution. The pH of the formulations was/is around pH 4. All i.v. formulations were isotonic.
State the value, then name its unit.

INSERT INTO assay_data (compound, result) VALUES
  ('O=C1COc2cc(/C=C/C(=O)N3CC4C=C(c5ccccc5)CC4C3)cnc2N1 (centres unmarked)', '3930 ng/mL');

Let us move to another entry and its C0.
Sample O=C1CNCc2cc(/C=C/C(=O)N3CC4C=C(c5nccs5)CC4C3)cnc2N1 (centres unmarked) — what was its C0? 4560 ng/mL

* * *

melting point: recorded values
API: value field is a number in °C; no unit string.

INSERT INTO assay_data (compound, numeric_result) VALUES
  ('Cc1cncc(C(=O)Nc2ccc(/C=C/C(=O)N3CC4C=C(c5ccccc5)CC4C3)cn2)c1 (stereo not drawn)', 214);

Sample O=C1CNC(=O)c2cc(/C=C/C(=O)N3CC4C=C(c5ccccc5)CC4C3)cnc2N1 (stereo not drawn) — what was its melting point? 226

Sample O=C1COCc2cc(/C=C/C(=O)N3C[C@H]4CC(c5ccccc5)=C[C@H]4C3)cnc2N1 (single isomer, unassigned) — what was its melting point? 272.58

Sample O=C1Nc2ncc(/C=C/C(=O)N3CC4C=C(c5ccccc5)CC4C3)cc2CN2CCOCC12 (stereo not drawn) — what was its melting point? 242

Sample Cc1cncc(C(=O)Nc2ccc(/C=C/C(=O)N3CC4C=C(c5ccnn5C)CC4C3)cn2)c1 (stereo not drawn) — what was its melting point? 173.34

Sample O=C(Cc1ccncc1)Nc1ccc(/C=C/C(=O)N2CC3C=C(c4ccccc4)CC3C2)cn1 (stereo not drawn) — what was its melting point? 239.7

* * *

AUC(0-inf): recorded values
Assay: In vivo pharmacokinetic and oral bioavailability in mouse
Parameters: species or system male Swiss mice
Settings: male, Swiss, plasma, po, 10 mg/kg, 20% HP-β-cyclodextrin
API: value field is a number in ng·h/mL; no unit string.

INSERT INTO results (compound, value_type, numeric_result) VALUES
  ('O=C1CNCc2cc(/C=C/C(=O)N3CC4C=C(c5ccccc5)CC4C3)cnc2N1 (centres unmarked) [Cpd. No. 38]', 'AUC(0-inf)', 2860);

Let us move to another entry and its AUC(0-inf).
Sample O=C1CNCc2cc(/C=C/C(=O)N3CC4C=C(c5nccs5)CC4C3)cnc2N1 (centres unmarked) [compound 48] — what was its AUC(0-inf)? 2050

* * *

Experiment: Thermodynamic solubility (pH solubility profiling)
Type: physicochemical
Conditions: aqueous with cosolvent or surfactant or cyclodextrin, thermodynamic from solid, 10% HP-β-CD buffer pH 7.4, ambient temperature
value_type: solubility thermodynamic at 4 days

Sample O=C1Nc2ncc(/C=C/C(=O)N3CC4C=C(c5ccccc5)CC4C3)cc2CN2CCNCC12 (stereo not shown) — what was its solubility thermodynamic at 4 days? > 5110 µg/mL

Sample O=C1CNCc2cc(/C=C/C(=O)N3CC4C=C(c5nccs5)CC4C3)cnc2N1 (stereo not shown) — what was its solubility thermodynamic at 4 days? > 1380 µg/mL

Sample O=C1Nc2ncc(/C=C/C(=O)N3CC4C=C(c5nccs5)CC4C3)cc2CN2CCOCC12 (stereo not shown) — what was its solubility thermodynamic at 4 days? > 1210 µg/mL

Sample O=C(Nc1ccc(/C=C/C(=O)N2CC3C=C(c4ccncc4)CC3C2)cn1)c1cccnc1 (stereo not shown) — what was its solubility thermodynamic at 4 days? > 1120 µg/mL

Measured values drawn from patent US9315522B2 for this set.
